Target: T1, Recombinant Human PD-L1-TVMV-His (human, UniProt Q9NZQ7 19-239)
T1 construct: expressed in HEK293T cells; also called PD-L1-His; hPD-L1(19-239)-TVMV-His
T1 sequence (Q9NZQ7 other isoform, or with tags, fused parts or gaps limits assumed): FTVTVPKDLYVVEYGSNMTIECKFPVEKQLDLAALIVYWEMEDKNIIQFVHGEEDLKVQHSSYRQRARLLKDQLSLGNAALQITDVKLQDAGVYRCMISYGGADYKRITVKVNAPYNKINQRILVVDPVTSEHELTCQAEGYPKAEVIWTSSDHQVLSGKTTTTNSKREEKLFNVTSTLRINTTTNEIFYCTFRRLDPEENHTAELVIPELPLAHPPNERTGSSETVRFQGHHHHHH
Experiment: HTRF vs PD-1-Ig; B = IC50 0.01-0.099 µM
From the text: Homogenous Time-Resolved Fluorescence (HTRF) Assays of Binding of Soluble PD-1 to Soluble PD-L1. Soluble PD-1 and soluble PD-L1 refers to proteins with carboxyl-end truncations that remove the transmembrane-spanning regions and are fused to heterologous sequences, specifically the Fc portion of the human immunoglobuling G sequence (Ig) or the hexahistidine epitope tag (His). […]
pIC50: −log10 of the molar value. Starred links: 1 amine or outer side, 2 acyl side, 3 side chain; linkers in the order of their positions; H or OH if unused. Positions of bridges follow the written chain, without caps; N, C: chain ends. Non-standard residues stand in square brackets, D forms with d. Groups on a side chain read outwards from the residue. Primed or numbered codes have the meaning given here. No end group written: not given here. *: point of attachment. Pra′ = propargylglycine (built in as LPH), clicked to a 1-substituted triazol-4-yl-alanine, O=C([C@H](Cc1cn([*:3])nn1)N[*:1])[*:2]; X1 = (S)‑3‑carboxy‑3‑(15-carboxypentadecanoylamino)propyl, O=C(O)CCCCCCCCCCCCCCC(=O)N[C@@H](CC*)C(=O)O; Pra″ = its azide, alkyne or alkene has reacted where a group follows in round brackets; triazole = 1,2,3-triazole formed by click of the Pra alkyne with the azide; Trp(1-CH2CO) = O=C([C@H](Cc1cn(CC(=O)[*:3])c2ccccc12)N[*:1])[*:2]; C18 diacid = O=C(O)CCCCCCCCCCCCCCCCC(=O)*; γGlu = O=C(O)[C@H](CCC(=O)[*:2])N[*:1]; Hyp = O=C(O)[C@@H]1C[C@@H](O)CN1; NMeNle = CCCC[C@H](NC)C(=O)O; NMeA = CN[C@@H](C)C(=O)O; PEG7′ = not defined here; Dab = NCC[C@H](N)C(=O)O; Dap = NC[C@H](N)C(=O)O
As shown below, each of these binders has a reported pIC50 value.

| BINDER | TEST READOUT | OBSERVED |
| --- | --- | --- |
| {CH2CO}-Y[NMeA]NP[Dap]L[Hyp]W[Dab][Trp(1-CH2CO)][NMeNle][NMeNle]LCGGG[Pra″]([triazole-PEG7′-γGlu-C18 diacid]) (thioether N-14 (inferred)) [Example 13124] | pIC50 | 7.00 to 8.00 |

So for {CH2CO}-Y[NMeA]DPHQ[Hyp]WSW[NMeNle][NMeNle]ECG[Pra′]([triazole-X1]) (thioether N-14) [Example 14068] , the logged pIC50 turned out to be 7.00 to 8.00
